Reference for the values: PubChem BioAssay (NCI)

test system: HOP-92 NSCLC; assay: NCI-60 one-dose screen, 48 h; settings: 10 µM unless noted
The panel holds about 83,000 compounds, 20% with a hit somewhere; the sample as a whole holds those more often. Activity calls are given as the source filed them. The calls were made as follows: active = growth percent below 10; inactive = the rest.
Classes used: 1.0 = active, 0.0 = inactive

{"Chem smiles": "COc1ccc(-c2cc(-c3ccc(Cl)cc3)nc(SCCCCCCC(=O)NO)n2)cc1", "Assigned class": 0.0}
{"Chem smiles": "C=C(C)[C@@H]1CC[C@]2(COC(=O)c3ccccc3C(=O)O)CC[C@]3(C)[C@H](CC[C@@H]4[C@@]5(C)CC[C@H](OC(=O)c6ccccc6C(=O)O)C(C)(C)[C@@H]5CC[C@]43C)[C@@H]12", "Assigned class": 1.0}
{"Chem smiles": "Cc1ccc(NC(=O)N[C@@H](Cc2cc(F)cc(F)c2)C(=O)N[C@@H]2C(=O)N3CCC[C@H]3C(=O)N3CCCC[C@H]3C(=O)N[C@@H](C)C(=O)N3C[C@H](C)C[C@H]3C(=O)O[C@H]2C)cc1", "Assigned class": 0.0}
{"Chem smiles": "CC(C)(C)c1cc(C(=O)Nc2cc3ccccc3cc2C(=O)NCCN)cc(C(C)(C)C)c1", "Assigned class": 1.0}
{"Chem smiles": "O=C1COCCN1c1ccc(NCc2cn(Cc3cccc4ccccc34)c3ccccc23)cc1", "Assigned class": 0.0}
{"Chem smiles": "O=C(Nc1ccc(Nc2ccncc2)cc1)c1ccc([N+](=O)[O-])cc1", "Assigned class": 0.0}
{"Chem smiles": "CC1(C)CC[C@]2(C(=O)O)CC[C@]3(C)C(=CC[C@@H]4[C@@]5(C)C/C(=C/c6ccco6)C(=O)C(C)(C)[C@@H]5CC[C@]43C)[C@@H]2C1", "Assigned class": 1.0}
